Assay: Half life of compound was determined in rat
Format: ADME, organism-based
Conditions: in vivo
MEASURED QUANTITY: half-life (h)
// return numeric value only (unit: h, not printed)

Which value of half-life has been reported for COc1ccc([C@H](CC(=O)O)N2CCN(CCCc3ccc4c(n3)NCCC4)C2=O)cn1 in the records?
3

----------
Experiment: Plasma clearance in rhesus monkey was determined
Type: ADME, organism-based
Settings: cercopithecidae
MEASURED QUANTITY: clearance (mL/min/kg)
// return numeric value only (unit: mL/min/kg, not printed)

Which value of clearance has been reported for COc1ccc([C@H](CC(=O)O)N2CCN(CCCc3ccc4c(n3)NCCC4)C2=O)cn1 in the records?
9

----------
Biological target: Integrin alpha-V/beta-3 (Homo sapiens, UniProt P05106+P06756)
Sequence (P05106 27-788 limits assumed): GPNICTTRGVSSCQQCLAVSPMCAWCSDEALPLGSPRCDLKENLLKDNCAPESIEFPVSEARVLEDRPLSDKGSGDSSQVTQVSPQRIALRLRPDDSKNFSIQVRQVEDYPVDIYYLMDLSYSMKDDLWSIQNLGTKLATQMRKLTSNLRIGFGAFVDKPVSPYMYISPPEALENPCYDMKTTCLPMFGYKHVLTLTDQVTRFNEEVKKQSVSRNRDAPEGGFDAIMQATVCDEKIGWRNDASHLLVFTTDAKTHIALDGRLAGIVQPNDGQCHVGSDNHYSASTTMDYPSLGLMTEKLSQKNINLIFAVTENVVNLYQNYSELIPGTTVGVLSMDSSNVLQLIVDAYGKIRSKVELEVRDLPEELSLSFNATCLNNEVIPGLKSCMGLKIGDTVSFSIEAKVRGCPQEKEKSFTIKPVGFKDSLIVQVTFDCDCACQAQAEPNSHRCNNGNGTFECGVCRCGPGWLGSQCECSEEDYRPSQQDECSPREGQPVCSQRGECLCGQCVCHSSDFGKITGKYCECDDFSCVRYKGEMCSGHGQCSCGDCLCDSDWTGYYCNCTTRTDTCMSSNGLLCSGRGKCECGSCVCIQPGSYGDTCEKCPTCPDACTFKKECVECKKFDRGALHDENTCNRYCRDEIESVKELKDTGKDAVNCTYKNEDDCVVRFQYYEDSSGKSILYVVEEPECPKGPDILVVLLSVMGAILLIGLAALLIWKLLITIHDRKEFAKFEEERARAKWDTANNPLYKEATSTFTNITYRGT
Sequence (P06756 31-889 limits assumed): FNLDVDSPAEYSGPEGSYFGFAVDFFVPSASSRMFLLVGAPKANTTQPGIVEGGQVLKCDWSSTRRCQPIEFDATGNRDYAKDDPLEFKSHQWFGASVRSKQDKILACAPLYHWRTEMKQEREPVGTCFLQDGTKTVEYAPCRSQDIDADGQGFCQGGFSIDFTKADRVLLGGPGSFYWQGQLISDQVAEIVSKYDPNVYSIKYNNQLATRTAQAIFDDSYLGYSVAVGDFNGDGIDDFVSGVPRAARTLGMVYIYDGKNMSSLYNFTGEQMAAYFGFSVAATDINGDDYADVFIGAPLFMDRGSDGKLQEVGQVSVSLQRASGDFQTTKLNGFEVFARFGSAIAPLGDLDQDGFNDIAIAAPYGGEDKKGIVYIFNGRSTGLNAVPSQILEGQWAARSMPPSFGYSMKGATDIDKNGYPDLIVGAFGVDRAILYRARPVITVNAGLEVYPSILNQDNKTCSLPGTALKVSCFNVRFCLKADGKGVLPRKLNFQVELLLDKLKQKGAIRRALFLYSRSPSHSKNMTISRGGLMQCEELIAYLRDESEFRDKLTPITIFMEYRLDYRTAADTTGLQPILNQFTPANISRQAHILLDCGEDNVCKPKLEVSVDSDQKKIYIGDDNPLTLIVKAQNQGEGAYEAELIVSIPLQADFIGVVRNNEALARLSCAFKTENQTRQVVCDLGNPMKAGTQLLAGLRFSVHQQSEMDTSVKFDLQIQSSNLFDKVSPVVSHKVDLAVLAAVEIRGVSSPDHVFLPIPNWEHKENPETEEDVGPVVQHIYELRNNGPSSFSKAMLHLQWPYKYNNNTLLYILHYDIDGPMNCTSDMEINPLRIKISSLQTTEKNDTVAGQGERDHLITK
Sequence (P06756 891-1048 limits assumed): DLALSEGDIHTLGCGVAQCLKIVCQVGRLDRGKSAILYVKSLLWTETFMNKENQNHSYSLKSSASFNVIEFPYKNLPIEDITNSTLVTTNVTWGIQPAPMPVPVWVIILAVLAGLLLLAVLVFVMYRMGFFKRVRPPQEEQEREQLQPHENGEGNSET
Test: Inhibition of alphaV-beta3 integrin binding
In this section, each of the molecules is paired with its reported pIC50.
Note: pIC50 values are expressed as the negative base-10 logarithm of concentration in M.

O=C(O)C[C@@H](c1cccnc1)N1CCN(CCCc2ccc3c(n2)NCCC3)C1=O = 9.60
COc1ccc([C@H](CC(=O)O)N2CCN(CCC(=O)c3ccc4c(n3)NCCC4)C2=O)cn1 = 8.52
COc1ccc([C@H](CC(=O)O)N2CCN(CCCc3ccc4c(n3)NC(=O)CC4)C2=O)cn1 = 6.85
COc1ccc([C@H](CC(=O)O)N2CCN(CCCc3ccc4c(n3)NC(O)CC4)C2=O)cn1 (some centres not stated) = 9.40

Which value of pIC50 has been reported for COc1ccc([C@H](CC(=O)O)N2CCN(CCCc3ccc4c(n3)NCCC4)C2=O)cn1 in the records?
10.10

Which value of pIC50 has been reported for COc1ccc([C@H](CC(=O)O)N2CCN(CCCc3ccc4c(n3)NCCC4)C2=O)cc1F in the records?
9.46

Which value of pIC50 has been reported for O=C(O)C[C@@H](c1ccc2c(c1)OCC2)N1CCN(CCCc2ccc3c(n2)NCCC3)C1=O in the records?
10.00

----------
In this section, each of the compounds is paired with its reported half-life.
Experiment: Half life of compound was determined in dog
Assay type: ADME, organism-based, Canis lupus familiaris
Settings: in vivo
// return numeric value only (unit: h, not printed)

Answered cases to consult:
COc1ccc([C@H](CC(=O)O)N2CCN(CCCc3ccc4c(n3)NCCC4)C2=O)cn1 = 3.5
O=C(O)C[C@@H](c1cccnc1)N1CCN(CCCc2ccc3c(n2)NCCC3)C1=O = 0.9
COc1ccc([C@H](CC(=O)O)N2CCN(CCCc3ccc4c(n3)NCCC4)C2=O)cc1F = 2.6

Okay, next one:
Which value of half-life has been reported for O=C(O)C[C@@H](c1ccc2c(c1)OCC2)N1CCN(CCCc2ccc3c(n2)NCCC3)C1=O in the records?
2.7

----------
Assay: Selectivity for alphaV-beta3 over alphaV-beta5 integrins
Set-up: species or system Homo sapiens
MEASURED QUANTITY: pIC50
Note: pIC50 values are expressed as the negative base-10 logarithm of concentration in M.

Which value of pIC50 has been reported for COc1ccc([C@H](CC(=O)O)N2CCN(CCCc3ccc4c(n3)NCCC4)C2=O)cn1 in the records?
8.00
